- Tested on: Staphylococcus sp.
- EXPERIMENTAL_DETAILS: In vitro antibacterial evaluation: minimum inhibitory concentration (MIC), broth dilution method
- Format: cell-based
- CONDITION_CONTEXT: broth dilution, 5×10^5 CFU/mL, 18 hours at 35° C.
List of MIC Coagulase Negative Staphylococcus (GC 4549) values.
OUTCOME_MEASURE: MIC Coagulase Negative Staphylococcus (GC 4549) (µg/mL)

| COMPOUND | UNIT_DESCRIPTOR | VALUE_OPERATOR | QUANTITATIVE_RESULT |
| --- | --- | --- | --- |
| CC(c1ccccc1)C1NC(=O)CNC(=O)C(CO)NC(=O)C(C(O)C2CNC(=N)N2C2OC(CO)C(O)C(O)C2O)NC(=O)C(C(O)C2CNC(=N)N2)NC(=O)C(Cc2ccc(OC3OC(CO)C(OC4OC5COC(c6ccc(C(=O)O)cc6)OC5C(O)C4O)C(O)C3O)cc2)NC1=O (centres unmarked) [Example 141] | µg/mL | > | 64 |
| CC(c1ccccc1)C1NC(=O)CNC(=O)C(CO)NC(=O)C(C(O)C2CNC(=N)N2C2OC(CO)C(O)C(O)C2O)NC(=O)C(C(O)C2CNC(=N)N2)NC(=O)C(Cc2ccc(OC3OC(CO)C(OC4OC5COC(c6ccc(C(=O)c7ccccc7)cc6)OC5C(O)C4O)C(O)C3O)cc2)NC1=O (centres unmarked) [Example 173] | µg/mL | = | 0.25 |
| CC(c1ccccc1)C1NC(=O)CNC(=O)C(CO)NC(=O)C(C(O)C2CNC(=N)N2C2OC(CO)C(O)C(O)C2O)NC(=O)C(C(O)C2CNC(=N)N2)NC(=O)C(Cc2ccc(OC3OC(CO)C(OC4OC5COC(c6ccsc6)OC5C(O)C4O)C(O)C3O)cc2)NC1=O (centres unmarked) [Example 133] | µg/mL | = | 1 |
| CC(c1ccccc1)C1NC(=O)CNC(=O)C(CO)NC(=O)C(C(O)C2CNC(=N)N2C2OC(CO)C(O)C(O)C2O)NC(=O)C(C(O)C2CNC(=N)N2)NC(=O)C(Cc2ccc(OC3OC(CO)C(OC4OC5COC(c6ccc(-c7ccsc7)cc6)OC5C(O)C4O)C(O)C3O)cc2)NC1=O (centres unmarked) [Example 164] | µg/mL | = | 0.5 |
| CC(c1ccccc1)C1NC(=O)CNC(=O)C(CO)NC(=O)C(C(O)C2CNC(=N)N2C2OC(CO)C(O)C(O)C2O)NC(=O)C(C(O)C2CNC(=N)N2)NC(=O)C(Cc2ccc(OC3OC(CO)C(OC4OC5COC(c6ccc(S(C)(=O)=O)cc6)OC5C(O)C4O)C(O)C3O)cc2)NC1=O (centres unmarked) [Example 157] | µg/mL | = | 8 |
